Exercise: for every item that follows, state its recorded protein stability index.
B1: TSPAN10 (parent)
chain: EGCGPPLRRWLRANLAASGGYAIA

Variants of: B1
assay method text: protein stability index of a GFP-peptide fusion (GPS, HEK-293T) (PSI 1-6); higher = more stable;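 note: lentivirally expressed fusions sorted by FACS into six bins by GFP to DsRed ratio, PSI derived from sequencing read proportions per bin multiplied by bin number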
condition label: c terminus: a fixed tail appended
# respond with the number and nothing more

Read the entry `E1V` and write its reported protein stability index. 1

Read the entry `N14G` and write its reported protein stability index. 2.24

Read the entry `W10Y` and write its reported protein stability index. 2.44

Read the entry `I23Q` and write its reported protein stability index. 2.48

Read the entry `E1W` and write its reported protein stability index. 2.07

Read the entry `L11F` and write its reported protein stability index. 1.03

Read the entry `A24F` and write its reported protein stability index. 1.48

Read the entry `W10R` and write its reported protein stability index. 3.5

Read the entry `G4H` and write its reported protein stability index. 2.58

Read the entry `G4L` and write its reported protein stability index. 1.58

Read the entry `G20W` and write its reported protein stability index. 1.84

Read the entry `P5N` and write its reported protein stability index. 2.02

Read the entry `A16G` and write its reported protein stability index. 1.71

Read the entry `G19D` and write its reported protein stability index. 2.11

Read the entry `I23T` and write its reported protein stability index. 2.53

Read the entry `A22Q` and write its reported protein stability index. 1.63

Read the entry `Y21T` and write its reported protein stability index. 2.53

Read the entry `Y21V` and write its reported protein stability index. 2.53

Read the entry `P5G` and write its reported protein stability index. 2.08

Read the entry `P6K` and write its reported protein stability index. 1.97

Read the entry `I23P` and write its reported protein stability index. 2.45

Read the entry `L7E` and write its reported protein stability index. 1.78

Data origin: the supplement of paper PMC10567573
